# Tested on: MV4-11
# Protocol notes: cells
# Experimental context: Homo sapiens, MV4-11, 192 h
Property measured: IC50 (µM)

Structure smiles: N/C(=N\O)c1cccc(/C=C/c2ccnc(-c3ccccc3O)c2)c1
Property measured: IC50
Unit of measure: µM
Endpoint value: 15.8

1. N/C(=N\O)c1cccc(/C=C/c2ccc(O)c(-c3ccccn3)c2)c1
2. N/C(=N\O)c1cccc(/C=C/c2ccnc(-c3cc(F)ccc3O)c2)c1
3. Nc1cccc(/C=C/c2ccc(O)c(-c3ccccn3)c2)c1
Ask | Provide the items ranked by increasing IC50. Return the labels ranked in the requested order, please.
Reply | 1, 2, 3
